assay_system: α4β1 (Homo sapiens, UniProt P05556+P13612)
Construct: Ramos Cell Adhesion Assay (α4β1 Mediated Adhesion/VCAM-1); endogenous in cells; host or cells: Ramos cells
Sequence (P13612 34-1032): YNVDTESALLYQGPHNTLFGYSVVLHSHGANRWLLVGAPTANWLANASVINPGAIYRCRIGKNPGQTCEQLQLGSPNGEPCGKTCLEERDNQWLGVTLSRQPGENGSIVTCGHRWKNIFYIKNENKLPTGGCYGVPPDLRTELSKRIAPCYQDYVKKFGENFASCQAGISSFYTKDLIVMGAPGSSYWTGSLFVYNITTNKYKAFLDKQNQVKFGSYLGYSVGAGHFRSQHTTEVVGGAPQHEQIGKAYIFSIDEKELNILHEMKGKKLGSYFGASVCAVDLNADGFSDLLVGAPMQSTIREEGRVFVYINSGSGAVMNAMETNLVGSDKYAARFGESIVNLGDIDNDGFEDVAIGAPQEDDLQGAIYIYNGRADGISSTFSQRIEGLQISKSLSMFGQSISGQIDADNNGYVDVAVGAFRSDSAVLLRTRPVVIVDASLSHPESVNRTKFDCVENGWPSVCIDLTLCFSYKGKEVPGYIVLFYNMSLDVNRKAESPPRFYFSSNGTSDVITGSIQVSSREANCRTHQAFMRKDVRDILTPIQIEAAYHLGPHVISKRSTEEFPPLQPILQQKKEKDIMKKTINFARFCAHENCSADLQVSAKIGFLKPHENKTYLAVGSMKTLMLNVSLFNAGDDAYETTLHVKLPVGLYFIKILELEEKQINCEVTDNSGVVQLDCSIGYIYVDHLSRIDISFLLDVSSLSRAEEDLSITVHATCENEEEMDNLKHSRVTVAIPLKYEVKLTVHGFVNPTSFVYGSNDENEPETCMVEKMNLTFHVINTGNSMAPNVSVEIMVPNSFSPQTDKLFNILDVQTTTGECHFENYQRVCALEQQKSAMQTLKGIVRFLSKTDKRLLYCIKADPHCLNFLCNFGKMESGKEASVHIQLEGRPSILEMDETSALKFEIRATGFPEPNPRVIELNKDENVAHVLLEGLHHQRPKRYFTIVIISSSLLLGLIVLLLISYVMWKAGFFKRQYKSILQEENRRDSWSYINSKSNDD
Sequence (P05556 21-798): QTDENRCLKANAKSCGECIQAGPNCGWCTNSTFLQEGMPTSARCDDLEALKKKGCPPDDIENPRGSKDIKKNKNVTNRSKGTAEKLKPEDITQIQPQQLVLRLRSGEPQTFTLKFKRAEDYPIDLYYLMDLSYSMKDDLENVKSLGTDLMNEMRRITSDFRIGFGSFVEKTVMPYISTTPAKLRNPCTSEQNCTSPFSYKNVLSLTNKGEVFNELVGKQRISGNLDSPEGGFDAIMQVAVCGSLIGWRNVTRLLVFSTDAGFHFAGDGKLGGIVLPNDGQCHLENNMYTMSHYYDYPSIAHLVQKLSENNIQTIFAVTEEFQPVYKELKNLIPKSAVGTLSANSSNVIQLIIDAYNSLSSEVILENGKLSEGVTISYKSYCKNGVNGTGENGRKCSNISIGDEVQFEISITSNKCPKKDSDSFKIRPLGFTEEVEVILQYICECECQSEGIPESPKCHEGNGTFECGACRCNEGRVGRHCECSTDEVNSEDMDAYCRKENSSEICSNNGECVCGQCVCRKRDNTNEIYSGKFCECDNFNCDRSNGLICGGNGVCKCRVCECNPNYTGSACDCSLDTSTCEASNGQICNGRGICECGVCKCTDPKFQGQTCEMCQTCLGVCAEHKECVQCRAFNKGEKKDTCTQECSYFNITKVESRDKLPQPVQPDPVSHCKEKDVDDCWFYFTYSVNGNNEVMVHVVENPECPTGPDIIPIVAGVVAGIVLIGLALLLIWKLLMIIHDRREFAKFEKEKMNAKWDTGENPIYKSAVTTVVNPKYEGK
assay_name: Ramos Cell Adhesion Assay (α4β1 Mediated Adhesion/VCAM-1)
Type: cell-based
particulars: Ramos cell adhesion to hVCAM-1; read-out: α4β1 IC50
reported_metric: IC50 (nM)

COc1cnn(C)c(=O)c1-c1ccc(C[C@H](NC(=O)C2C(C)(C)C2(C)C)C(=O)O)cc1 [Cpd 136]	1160
COc1cnn(C)c(=O)c1-c1ccc(C[C@H](NC(=O)[C@@H]2C3CCC(CC3)N2C(=O)OCc2ccccc2)C(=O)O)cc1 [Cpd 103]	629
C=CCNc1cnn(CC(C)=O)c(=O)c1-c1ccc(C[C@H](NC(=O)c2c(Cl)cccc2Cl)C(=O)O)cc1 [Cpd 36]	1310
Cn1ncc(OCCOCCO)c(-c2ccc(C[C@H](NC(=O)c3c(Cl)cccc3Cl)C(=O)O)cc2)c1=O [Cpd 7]	192

a: CS(=O)(=O)c1ccc(-c2cnn(CC3CC3)c(=O)c2-c2ccc(C[C@H](NC(=O)c3c(Cl)cccc3Cl)C(=O)O)cc2)cc1 [Cpd 65]
b: Cn1ncc(OCc2ccccc2)c(-c2ccc(C[C@H](NC(=O)c3c(Cl)cccc3Cl)C(=O)O)cc2)c1=O [Cpd 52]
c: COCCC(=O)N1C2CCC(CC2)[C@H]1C(=O)N[C@@H](Cc1ccc(-c2c(OC)cnn(C)c2=O)cc1)C(=O)O [Cpd 125]
d: CN1CCC(Oc2cnn(C)c(=O)c2-c2ccc(C[C@H](NC(=O)c3c(Cl)cccc3Cl)C(=O)O)cc2)C1 (some centres unmarked) [Cpd 12]
Ordering: ascending IC50. Give the labels in the order requested.
c, d, b, a
(c: 112 nM, d: 305 nM, b: 663 nM, a: 4220 nM)

P: COc1cnn(C)c(=O)c1-c1ccc(CC(NC(=O)c2c(Cl)cccc2Cl)C(=O)OCCO)cc1 (centres unmarked) [Cpd 97]
Q: CSc1cnn(C(C)(C)C)c(=O)c1-c1ccc(C[C@H](NC(=O)c2c(Cl)cccc2Cl)C(=O)O)cc1 [Cpd 78]
R: COc1cnn(CC(F)(F)F)c(=O)c1-c1ccc(C[C@H](NC(=O)c2c(Cl)cccc2Cl)C(=O)O)cc1 [Cpd 39]
Arrange items by their IC50 values in increasing order. List the labels according to the requested ordering.
R, P, Q
(R: 588 nM, P: 3240 nM, Q: 5610 nM)

A: COc1cnn(C)c(=O)c1-c1ccc(C[C@H](NC(=O)[C@@H](C(C)C)N(C)C(=O)CCc2ccccc2)C(=O)O)cc1 [Cpd 90]
B: COCCOCCOC(=O)[C@H](Cc1ccc(-c2c(OC)cnn(C)c2=O)cc1)NC(=O)c1c(Cl)cccc1Cl [Cpd 91]
// task: argmin of IC50 over [ A , B ] Return value: the label identifying the chosen record.
B
(B: 2380 nM, A: 4500 nM)

1: COc1cnn(C)c(=O)c1-c1ccc(C[C@H](NC(=O)[C@@H]2C3CCC(CC3)N2C(=O)CCc2ccccc2)C(=O)O)cc1 [Cpd 89]
2: COc1cnn(CCN2CCOCC2)c(=O)c1-c1ccc(C[C@H](NC(=O)c2c(Cl)cccc2Cl)C(=O)O)cc1 [Cpd 10]
Select the item with the higher value of IC50 from the options 1 and 2 listed. Respond using the label that marks the chosen record.
2
(2: 363 nM, 1: 39.7 nM)
